// reported protein stability index per item
B1: OAS1 (parent)
chain: TPAKSLDKFIEDYLLPDTCFRMQI

Variants of: B1
TEST SUMMARY: protein stability index of a GFP-peptide fusion (GPS, HEK-293T) (PSI 1-6); higher = more stable;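 note: lentivirally expressed fusions sorted by FACS into six bins by GFP to DsRed ratio, PSI derived from sequencing read proportions per bin multiplied by bin number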
TEST CONTEXT: c terminus: a fixed tail appended
Kindly provide the number alone.

MUTANT ID | protein stability index
Y13P | 1.57
Y13T | 1.9
E11R | 4.73
D7C | 2.77
T18E | 3.65

Fill blank: measured protein stability index of the variant L6T is ____.
3.08

Okay, and K4H ?
2.59

Okay, and F20N ?
1.95

Okay, and P16K ?
2.78

Provenance of the data: the supplement of paper PMC10567573
